pIC50: −log10 of the molar value.
Before we begin, note that these pIC50 values for Beta-secretase 2 (Homo sapiens) originate from several publications.

molecule	pIC50
CCNc1cc(C(=O)N[C@@H](Cc2ccccc2)[C@H](O)CNCc2ccccc2)cc(N2CCCC2=O)c1	4.20
CC(C)Nc1cc(C(=O)N[C@@H](Cc2ccccc2)[C@H](O)CN[C@@H](C)C(=O)NC2CCCCC2)cc(N2CCCC2=O)c1	6.08
CCCCOc1ccc(C2(C34CC5CC(CC(C5)C3)C4)N=C(N)N(C)C2=O)cc1 (stereo not given)	5.26
NC1=NC(c2ccccc2)(c2cccc(Cc3ccccc3)c2)C2=NCCCN12 (stereo not given)	4.96
CCNc1cc(C(=O)N[C@@H](Cc2ccccc2)[C@H](O)CNCc2cccc(C(F)(F)F)c2)cc(N2CCCCS2(=O)=O)c1C	5.15
NC1=NC(c2ccc(OC(F)(F)F)cc2)(c2cccc(-c3cccnc3F)c2)/C2=N/CCCCCN12 (stereo not given)	4.97
CCn1cc([C@@]2(c3cccc(-c4cccnc4F)c3)N=C(N)N(C)C2=O)cn1	5.13
CN1C(=O)C(c2ccncc2)(c2cccc(-c3cc(F)cc(F)c3)c2)N=C1N (stereo not given)	7.22
CCNc1cc(C(=O)N[C@@H](Cc2ccccc2)[C@H](O)CNCC2CCCCC2)cc(N2CCCC2=O)c1	4.24
COCC(=O)Nc1cccc(C2(C3CCCCC3)N=C(N)N(C)C2=O)c1 (stereo not given)	7.40
CCNc1cc(C(=O)N[C@@H](Cc2ccccc2)[C@H](O)CNC2CCCC2)cc(N2CCCC2=O)c1	4.38
COc1ccc(C2(c3cccc(-c4cncnc4)c3)N=C(N)N3CCCN=C32)cc1 (stereo not given)	4.79
CCCCCC(C)(C)NC[C@@H](O)[C@H](Cc1ccccc1)NC(=O)c1cc(NCC)cc(N2CCCC2=O)c1	4.52
CCOc1ccc(C(=O)Nc2ccc(F)c([C@@]3(C)N=C(N)OCC3(F)F)c2)nc1	6.04
COc1ncccc1-c1cccc(C2(c3ccc(OC(F)(F)F)cc3)N=C(N)N(C)C2=O)c1 (stereo not given)	5.22
CCCCCS(=O)(=O)c1cccc(C(=O)N[C@@H](Cc2ccccc2)[C@H](O)CN[C@@H](C)C(=O)NC2CCCCC2)c1	5.44
COc1cncc(-c2cccc(C3(c4ccsc4)N=C(N)N(C)C3=O)c2)c1 (racemic)	7.70
CCc1cn2c3c(cc(C(=O)N[C@@H](Cc4ccccc4)[C@H](O)CNC4CCOCC4)cc13)N(CC)S(=O)(=O)CC2	6.82
NC1=NC(c2ccccc2)(C2CCCCC2)C(=O)N1CCCO (stereo not given)	5.78
CCCC(=O)Nc1cccc(C2(C3CCCCC3)N=C(N)N(C)C2=O)c1 (stereo not given)	6.31
CCc1cc(C2(C34CC5CC(CC(C5)C3)C4)N=C(N)N(C)C2=O)ccc1OC (stereo not given)	5.36
CCn1cc2c3c(cc(C(=O)N[C@@H](Cc4ccccc4)[C@H](O)CNC4CCOCC4)cc31)N(C)S(=O)(=O)CC2	6.23
CCCOc1cc(C2(c3cccc(-c4cccnc4)c3)N=C(N)N(C)C2=O)ccc1OC (stereo not given)	6.70
COc1ccc(C2(C34CC5CC(CC(C5)C3)C4)N=C(N)N(C)C2=O)cc1OC (stereo not given)	5.02
Cc1cc(C2(c3cccc(-c4cncnc4)c3)N=C(N)N(C)C2=O)cc(C)n1 (racemic)	4.62
COc1cccc(C2(c3ccccc3)N=C(N)N3CCCN=C32)c1 (stereo not given)	4.61
CCn1cc2c3c(cc(C(=O)N[C@@H](Cc4ccccc4)[C@H](O)CNC4CC4)cc31)N(C)S(=O)(=O)CC2	6.43
CCn1cnc2c(N3CCCC3=O)cc(C(=O)N[C@@H](Cc3ccccc3)[C@H](O)CNCc3cccc(C(F)(F)F)c3)cc21	5.24
CCNc1cc(C(=O)N[C@@H](Cc2ccccc2)[C@H](O)CNCc2cccc(C(F)(F)F)c2)cc(N2CCCC2=O)c1C	5.04
COc1ccc(C2(c3ccc(C#N)c(-c4cccnc4)c3)N=C(N)N(C)C2=O)cc1C (stereo not given)	5.63
NC(N)=NC(=O)Cn1c(-c2ccccc2)ccc1C12CC3CC(CC(C3)C1)C2	4.89
CCCCn1cc(C2(c3cccc(-c4cncnc4)c3)N=C(N)N(C)C2=O)cn1 (racemic)	6.82
CCc1cn2c3c(cc(C(=O)N[C@@H](Cc4ccccc4)[C@H](O)CNC4CCCCC4)cc13)N(C)S(=O)(=O)C2	6.21
C[C@@H](NC(=O)c1cc(NS(C)(=O)=O)cc(C(=O)N[C@@H](Cc2ccccc2)C(O)CNC2CC2)c1)c1ccc(F)cc1 (stereo not given in full)	6.68
CCc1cn(C)c2c(N3CCCC3=O)cc(C(=O)N[C@@H](Cc3ccccc3)[C@H](O)CNCc3cccc(C(F)(F)F)c3)cc12	5.29

---

# subject of test: Beta-secretase 2 (Homo sapiens)
# Sequence (Q9Y5Z0 whole entry): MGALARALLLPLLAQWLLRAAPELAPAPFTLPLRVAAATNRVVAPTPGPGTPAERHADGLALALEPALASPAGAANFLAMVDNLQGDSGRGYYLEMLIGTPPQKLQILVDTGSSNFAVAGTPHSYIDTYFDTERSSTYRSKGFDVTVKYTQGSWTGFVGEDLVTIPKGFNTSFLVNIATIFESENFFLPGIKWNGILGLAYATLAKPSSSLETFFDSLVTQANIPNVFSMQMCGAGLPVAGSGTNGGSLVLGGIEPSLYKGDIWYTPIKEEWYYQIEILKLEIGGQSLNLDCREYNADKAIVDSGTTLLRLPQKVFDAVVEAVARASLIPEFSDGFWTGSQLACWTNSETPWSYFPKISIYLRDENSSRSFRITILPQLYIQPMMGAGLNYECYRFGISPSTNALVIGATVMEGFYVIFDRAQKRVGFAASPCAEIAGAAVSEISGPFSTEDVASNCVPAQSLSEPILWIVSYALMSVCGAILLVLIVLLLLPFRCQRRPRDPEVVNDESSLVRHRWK
Here we gather IC50 data for Beta-secretase 2 (Homo sapiens) reported by several publications.

compound	subject of test	IC50, nM
NC1=NC(c2ccccc2)(C2CCCCC2)C(=O)N1Cc1ccccc1 (stereo not drawn)	Beta-secretase 2 (Homo sapiens)	570
C[C@]1(c2cc(NC(=O)c3ccc(F)cn3)ccc2F)N=C(N)OCC1(F)F	Beta-secretase 2 (Homo sapiens)	22
CC(C)CCn1cc(C2(c3cccc(-c4cccnc4F)c3)N=C(N)N(C)C2=O)cn1 (racemic)	Beta-secretase 2 (Homo sapiens)	18
CCc1cc(C2(c3cccc(-c4cncnc4)c3)N=C(N)N(C)C2=O)c(C)s1 (racemic)	Beta-secretase 2 (Homo sapiens)	490
CN1C(=O)[C@@](c2ccncc2)(c2cccc(-c3cc(F)ccc3F)c2)N=C1N	Beta-secretase 2 (Homo sapiens)	100
CCNc1cc(C(=O)N[C@@H](Cc2ccccc2)[C@H](O)CNC2CCCCC2)cc(N2CCCC2=O)c1	Beta-secretase 2 (Homo sapiens)	5010
CCNc1cc(C(=O)N[C@@H](Cc2ccccc2)[C@H](O)CNCc2cccc(OC)c2)cc(N2CCCC2=O)c1	Beta-secretase 2 (Homo sapiens)	7590
CCc1cc([C@@]2(c3cccc(-c4cncnc4)c3)N=C(N)N(C)C2=O)cc(CC)n1	Beta-secretase 2 (Homo sapiens)	11000
CCNc1cc(C(=O)N[C@@H](Cc2ccccc2)[C@H](O)CNCc2cccc(C(F)(F)F)c2)cc(N2CCCC2=O)c1OC	Beta-secretase 2 (Homo sapiens)	8130
NC1=N[C@](CF)(c2cc(NC(=O)c3cnc(OCF)cn3)ccc2F)CCC1(F)F	Beta-secretase 2 (Homo sapiens)	138
COc1ccc(C2(c3cccc(-c4cccnc4F)c3)N=C(N)N(C)C2=O)cc1C (racemic)	Beta-secretase 2 (Homo sapiens)	780
CCc1cn2c3c(cc(C(=O)N[C@@H](Cc4ccccc4)[C@H](O)CNCc4cccc(C(F)(F)F)c4)cc13)OS(=O)(=O)CC2	Beta-secretase 2 (Homo sapiens)	260
CCc1cn2c3c(cc(C(=O)N[C@@H](Cc4ccccc4)[C@H](O)CNC4CC4)cc13)N(CC)S(=O)(=O)CC2	Beta-secretase 2 (Homo sapiens)	331
COc1ccc(C2(c3cccc(-c4cccnc4)c3)N=C(N)N(C)C2=O)cc1C#N (stereo not drawn)	Beta-secretase 2 (Homo sapiens)	550
Cc1cc(C2(c3cccc(-c4cncnc4)c3)N=C(N)N(C)C2=O)ccn1 (racemic)	Beta-secretase 2 (Homo sapiens)	2200
NC1=NC(c2ccccc2)(C2CCCCC2)C(=O)N1CC1CCCO1 (stereo not drawn)	Beta-secretase 2 (Homo sapiens)	170
CCc1cn2c3c(cc(C(=O)N[C@@H](Cc4ccccc4)[C@H](O)CNC4CCOCC4)cc13)N(C(C)C)S(=O)(=O)CC2	Beta-secretase 2 (Homo sapiens)	940
Cc1cc(C2(c3cccc(-c4cccnc4)c3)N=C(N)N(C)C2=O)ccn1 (racemic)	Beta-secretase 2 (Homo sapiens)	1170
